Just for reference, the supplement of paper PMC7287046 is where these values come from.

system: U87; assay: Loewe synergy score (Combenefit); higher = more synergy; extreme values may be limits of the assay; conditions: exposure time: 72 h
Measured Property: Loewe synergy score
Respond using a number only.

Compound: CCC(=O)N1CCN(c2ccc(-n3c(=O)ccc4cnc5ccc(-c6cnc7ccccc7c6)cc5c43)cc2C(F)(F)F)CC1 [Torin1] + N#CC(c1ccnc(NCCc2cccnc2)n1)c1nc2ccccc2s1 [AS601245]
Loewe synergy score: 0
//
Compound: Nc1ccn([C@@H]2O[C@H](CO)[C@@H](O)C2(F)F)c(=O)n1 [Gemcitabine] + C=CCc1cccc(/C=N/NC(=O)CN2CCN(Cc3ccccc3)CC2)c1O [PAC-1]
Loewe synergy score: 0

Kindly review the next compound as well.
## Task Consider the compound CCC(=O)N1CCN(c2ccc(-n3c(=O)ccc4cnc5ccc(-c6cnc7ccccc7c6)cc5c43)cc2C(F)(F)F)CC1 [Torin1] + CCCCCCCCCCCC1=C(O)C(=O)C=C(O)C1=O [Embelin] and give its measured Loewe synergy score.
## Result 0.761

====

system: SF539; experiment: Bliss synergy score (Combenefit); higher = more synergy; extreme values may be limits of the assay; details: exposure time: 72 h
Measured Property: Bliss synergy score
Respond using a number only.

Below: 3 compounds and their reported Bliss synergy score.
Compound: C[C@@H](Oc1cc(-c2cnn(C3CCNCC3)c2)cnc1N)c1c(Cl)ccc(F)c1Cl [Crizotinib] + C=CCc1cccc(/C=N/NC(=O)CN2CCN(Cc3ccccc3)CC2)c1O [PAC-1]
Bliss synergy score: 1.39
--
Compound: C=CCc1cccc(/C=N/NC(=O)CN2CCN(Cc3ccccc3)CC2)c1O [PAC-1] + CCOc1nc(NC(=O)Cc2cc(OC)ccc2OC)cc(N)c1C#N [JNK inhibitor VIII]
Bliss synergy score: 3.99
--
Compound: CCC(=O)N1CCN(c2ccc(-n3c(=O)ccc4cnc5ccc(-c6cnc7ccccc7c6)cc5c43)cc2C(F)(F)F)CC1 [Torin1] + O=c1[nH]c2ccccc2n1C1CCN(Cc2ccc(-c3[nH]c4cc5ncnc5cc4nc3-c3ccccc3)cc2)CC1 [Akt inhibitor VIII]
Bliss synergy score: 3.46

## Task Consider the compound Nc1ccn([C@@H]2O[C@H](CO)[C@@H](O)C2(F)F)c(=O)n1 [Gemcitabine] + C[C@@H](Oc1cc(-c2cnn(C3CCNCC3)c2)cnc1N)c1c(Cl)ccc(F)c1Cl [Crizotinib] and give its measured Bliss synergy score.
## Result 0.0351

## Task Consider the compound CCCCCCCCCCCC1=C(O)C(=O)C=C(O)C1=O [Embelin] + N#CC(c1ccnc(NCCc2cccnc2)n1)c1nc2ccccc2s1 [AS601245] and give its measured Bliss synergy score.
## Result 0.103

## Task Consider the compound C#Cc1cccc(Nc2ncnc3cc(OCCOC)c(OCCOC)cc23)c1 [Erlotinib] + CCCCCCCCCCCC1=C(O)C(=O)C=C(O)C1=O [Embelin] and give its measured Bliss synergy score.
## Result 2.46

## Task Consider the compound CCC(=O)N1CCN(c2ccc(-n3c(=O)ccc4cnc5ccc(-c6cnc7ccccc7c6)cc5c43)cc2C(F)(F)F)CC1 [Torin1] + CCCCCCCCCCCC1=C(O)C(=O)C=C(O)C1=O [Embelin] and give its measured Bliss synergy score.
## Result 0.761

====

Measured Bliss synergy score of individual entries
tested on: SF539; test: Bliss synergy score (Combenefit); higher = more synergy; extreme values may be limits of the assay; details: exposure time: 72 h
Respond using a number only.

Below: 3 molecules and their reported Bliss synergy score.
Molecule: CC(=O)O[C@@]12CO[C@@H]1C[C@H](O)[C@@]1(C)C(=O)[C@H](O)C3=C(C)[C@@H](OC(=O)[C@H](O)[C@@H](NC(=O)OC(C)(C)C)c4ccccc4)C[C@@](O)([C@@H](OC(=O)c4ccccc4)[C@H]21)C3(C)C [Docetaxel] + CCC(=O)N1CCN(c2ccc(-n3c(=O)ccc4cnc5ccc(-c6cnc7ccccc7c6)cc5c43)cc2C(F)(F)F)CC1 [Torin1]
Recorded Value: 0
//
Molecule: C#Cc1cccc(Nc2ncnc3cc(OCCOC)c(OCCOC)cc23)c1 [Erlotinib] + O=c1[nH]c2ccccc2n1C1CCN(Cc2ccc(-c3[nH]c4cc5ncnc5cc4nc3-c3ccccc3)cc2)CC1 [Akt inhibitor VIII]
Recorded Value: 0.771
//
Molecule: CO[C@H]1C[C@@H]2CC[C@@H](C)[C@@](O)(O2)C(=O)C(=O)N2CCCC[C@H]2C(=O)O[C@H]([C@H](C)C[C@@H]2CC[C@@H](O)[C@H](OC)C2)CC(=O)[C@H](C)/C=C(\C)[C@@H](O)[C@@H](OC)C(=O)[C@H](C)C[C@H](C)/C=C/C=C/C=C/1C [Rapamycin] + Cc1cc([C@@H](C)Nc2ccccc2C(=O)O)c2nc(N3CCOCC3)cc(=O)n2c1 [AZD6482]
Recorded Value: 0

Kindly review the next molecule as well.
## Task Consider the molecule Nc1ccn([C@@H]2O[C@H](CO)[C@@H](O)C2(F)F)c(=O)n1 [Gemcitabine] + C=CCc1cccc(/C=N/NC(=O)CN2CCN(Cc3ccccc3)CC2)c1O [PAC-1] and give its measured Bliss synergy score.
## Result 0.236
